From: patent US20210145976A1

Quick list: IC50, SKBR-3 viability, MMAF conjugate, first unlabelled column (+/- human transferrin) per entry.
molecular target: CD71 on SK-BR-3 cells (human, UniProt P02786 1-760); assay: cell-based or functional assay
Sequence (P02786 whole entry): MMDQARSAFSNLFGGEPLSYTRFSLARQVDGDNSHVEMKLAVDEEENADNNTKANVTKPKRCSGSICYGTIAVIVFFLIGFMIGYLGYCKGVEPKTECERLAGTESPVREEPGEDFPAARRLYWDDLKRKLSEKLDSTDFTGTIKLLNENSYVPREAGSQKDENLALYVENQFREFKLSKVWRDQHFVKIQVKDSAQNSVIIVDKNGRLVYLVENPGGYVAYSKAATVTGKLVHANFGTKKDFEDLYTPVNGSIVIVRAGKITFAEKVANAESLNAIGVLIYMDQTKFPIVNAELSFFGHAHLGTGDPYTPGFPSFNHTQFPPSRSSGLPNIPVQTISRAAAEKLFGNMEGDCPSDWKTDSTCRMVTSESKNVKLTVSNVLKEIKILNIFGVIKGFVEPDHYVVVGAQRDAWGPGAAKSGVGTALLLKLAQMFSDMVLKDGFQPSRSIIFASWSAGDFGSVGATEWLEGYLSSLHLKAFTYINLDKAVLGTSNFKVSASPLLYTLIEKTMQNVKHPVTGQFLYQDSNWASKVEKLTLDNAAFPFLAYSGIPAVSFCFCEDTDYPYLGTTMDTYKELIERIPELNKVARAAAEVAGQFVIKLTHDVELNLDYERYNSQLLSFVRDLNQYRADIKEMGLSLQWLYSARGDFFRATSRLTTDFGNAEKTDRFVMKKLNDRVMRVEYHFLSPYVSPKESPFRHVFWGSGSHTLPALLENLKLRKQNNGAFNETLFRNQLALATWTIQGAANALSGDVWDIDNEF
Answer format: numeric, nM implied, no suffix.

Reference set (3 entries):
Using the record for SEQ ID NO 164 (designed binder, FN3 domain) MLPAPKNLVVSRVTEDSARLSWTAPDAAFDSFLIPYAETSPSGEAIVLTVPGSERSYDLTGLKPGTEYSVLIHGVKGGHLSDPLSAIFTT , report its IC50, SKBR-3 viability, MMAF conjugate, first unlabelled column (+/- human transferrin).
18.7

Using the record for SEQ ID NO 214 (designed binder, FN3 domain) MLPAPKNLVVSRVTEDSARLSWTAPDAAFDSFAIPYGERQELGEAIVLTVPGSERSYDLTGLKPGTEYFVVIQGVKGGQPSYPLSAIFTT , report its IC50, SKBR-3 viability, MMAF conjugate, first unlabelled column (+/- human transferrin).
28.1

Using the record for SEQ ID NO 134 (designed binder, FN3 domain) MLPAPKNLVVSRVTEDSARLSWTAPDAAFDSFWIDYYERKYVGEAIVLTVPGSERSYDLTGLKPGTEYEVTIYGVKGGWYSDPLSAIFTT , report its IC50, SKBR-3 viability, MMAF conjugate, first unlabelled column (+/- human transferrin).
165

Now turn to the next binder.
Using the record for SEQ ID NO 112 (designed binder, FN3 domain) MLPAPKNLVVSRVTEDSARLSWTAPDAAFDSFFIAYFEFANPGEAIVLTVPGSERSYDLTGLKPGTEYKVVIQGVKGGTPSEPLSAISTT , report its IC50, SKBR-3 viability, MMAF conjugate, first unlabelled column (+/- human transferrin).
27.3
